B1: ANKRD40 (parent)
chain: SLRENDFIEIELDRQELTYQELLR

Variants of: B1
protocolNotes: protein stability index of a GFP-peptide fusion (GPS, HEK-293T) (PSI 1-6); higher = more stable;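 also: lentivirally expressed fusions sorted by FACS into six bins by GFP to DsRed ratio, PSI derived from sequencing read proportions per bin multiplied by bin number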
experimentalSetup: c terminus: a fixed tail appended
Label yes (1) when protein stability index is at or above 3; anything below gets no (0).

Prompt: Does the reported protein stability index for SLRENDFCEIELDRQELTYQELLR fall at or above the 3 mark?
Completion: yes (1)

Prompt: Try this variant next: SLRENDFIEIELDRQEATYQELLR
Completion: yes (1)

Prompt: Also need SNRENDFIEIELDRQELTYQELLR , thanks.
Completion: no (0)

Prompt: Now consider SLRHNDFIEIELDRQELTYQELLR and answer again.
Completion: no (0)

Prompt: Entry to check: SLRENDFIEIELDRFELTYQELLR
Completion: no (0)

Prompt: Please do the same for SLRENDFIEIELDRQEHTYQELLR as well.
Completion: yes (1)

Prompt: Next record, please: SLRENDFIEIELWRQELTYQELLR
Completion: no (0)

Prompt: Try this variant next: SLRENDFIESELDRQELTYQELLR
Completion: yes (1)

Prompt: Okay, and SLYENDFIEIELDRQELTYQELLR ?
Completion: no (0)

Prompt: Follow-up item: SLRENDFIEIELDRQEYTYQELLR
Completion: yes (1)

Prompt: Now the variant SLRENDDIEIELDRQELTYQELLR
Completion: yes (1)

Prompt: Item: SLRENDFIEQELDRQELTYQELLR
Completion: yes (1)

Prompt: Request: SLRENDFIVIELDRQELTYQELLR
Completion: no (0)

Prompt: Same question, SLVENDFIEIELDRQELTYQELLR this time
Completion: no (0)

Prompt: // repeat for SFRENDFIEIELDRQELTYQELLR and report
Completion: no (0)

Prompt: And SLRENDFIYIELDRQELTYQELLR ?
Completion: no (0)

Prompt: Also need SLRENDFDEIELDRQELTYQELLR , thanks.
Completion: yes (1)

Taken from the supplement of paper PMC10567573.
